- Tested on: Calu-3
- assay_summary: cell viability relative to DMSO; higher = less toxic
- measurement_context: 72 h; 1 nM
Listing: cell viability of selected molecules
Just the number in %, nothing appended.

molecule	scale_unit	value
O=C(CN1C(=O)C2(CCCC2)NC[C@H]1c1cc(F)cc(F)c1)Nc1ccc2c(c1)C[C@@]1(C2)C(=O)Nc2ncccc21	%	96.6
N[C@@H](Cc1cc(-c2ccc(Cl)cc2Cl)cc(CP(=O)(O)O)c1O)C(=O)O	%	105
CC[C@H]1OC(=O)[C@H](C)[C@@H](O[C@H]2C[C@@](C)(OC)[C@@H](O)[C@H](C)O2)[C@H](C)[C@@H](O[C@@H]2O[C@H](C)C[C@H](N(C)C)[C@H]2O)[C@](C)(OC)C[C@@H](C)C(=O)[C@H](C)[C@@H](O)[C@]1(C)O	%	93.1
CN1[C@@H]2CC[C@H]1C[C@@H](OC(=O)N1Cc3ccccc3NC1=O)C2	%	96.5
Cc1cn(-c2cc(NC(=O)c3ccc(C)c(Nc4nccc(-c5cccnc5)n4)c3)cc(C(F)(F)F)c2)cn1	%	98.8

As a next step, examine the molecule that follows.
Ask: What value of measured cell viability is listed for CC(=O)OCC(=O)[C@@]1(O)CC[C@H]2[C@@H]3CCC4=CC(=O)C=C[C@]4(C)[C@H]3[C@@H](O)C[C@@]21C [prednisolone-acetate] ?
Reply: 99.5
